Measured residual activity accompanies every entry in the list below.
- TGT: Serine/threonine-protein kinase Nek7 (Homo sapiens)
- MEASUREMENT_PARAMETERS: at 1 µM
- Description: Millipore: Percentage of residual kinase activity of NEK7 at 1uM relative to control. Control inhibitor: Phosphoric acid* at 0.3uM. Buffer: 8 mM MOPS pH 7.0, 0.2 mM EDTA

[
  {
    "SMI": "N#C/C(=C\\c1ccc(O)c(O)c1)C(=O)NCc1ccccc1",
    "residual activity": "101% (inactive)"
  },
  {
    "SMI": "CN(C)S(=O)(=O)c1ccc2c(c1)/C(=C/c1cc3c([nH]1)CCCC3)C(=O)N2",
    "residual activity": "111% (inactive)"
  },
  {
    "SMI": "O=C1Cc2c([nH]c3ccc([N+](=O)[O-])cc23)-c2ccccc2N1",
    "residual activity": "106% (inactive)"
  },
  {
    "SMI": "COc1cc2nccc(Oc3ccc(NC(=S)NC(=O)c4ccccc4C)cc3)c2cc1OC",
    "residual activity": "98% (inactive)"
  },
  {
    "SMI": "NC(=O)Nc1sc(-c2ccc(F)cc2)cc1C(N)=O",
    "residual activity": "102% (inactive)"
  },
  {
    "SMI": "COc1cc2nccc(Oc3ccc(NC(=O)Nc4cc(C)on4)c(Cl)c3)c2cc1OC",
    "residual activity": "98% (inactive)"
  },
  {
    "SMI": "O=C1NC(=O)c2c1c1c3ccccc3[nH]c1n1cncc21",
    "residual activity": "100% (inactive)"
  },
  {
    "SMI": "O=C1Cc2c([nH]c3ccc(Br)cc23)-c2ccccc2N1",
    "residual activity": "100% (inactive)"
  },
  {
    "SMI": "COc1cc2ncnc(Nc3cccc(Cl)c3)c2cc1OC",
    "residual activity": "102% (inactive)"
  },
  {
    "SMI": "O=C(c1ccccc1)c1ccc(N2CCOCC2)cc1O",
    "residual activity": "116% (inactive)"
  },
  {
    "SMI": "Nc1ncnc2[nH]nc(Nc3ccc(F)cc3)c12",
    "residual activity": "100% (inactive)"
  },
  {
    "SMI": "Cn1c2ccccc2c2c3c(c4c5ccccc5n(CCC#N)c4c21)CNC3=O",
    "residual activity": "95% (inactive)"
  },
  {
    "SMI": "CCCC(=O)Oc1ccc2[nH]c(C(=O)c3cc4ccccc4[nH]3)cc2c1",
    "residual activity": "91% (inactive)"
  },
  {
    "SMI": "Nc1nc(Nc2ccc(S(N)(=O)=O)cc2)nn1C(=O)c1c(F)cccc1F",
    "residual activity": "111% (inactive)"
  },
  {
    "SMI": "Oc1cccc(-c2nc(N3CCOCC3)c3oc4ncccc4c3n2)c1",
    "residual activity": "100% (inactive)"
  }
]
